meta.source: patent US10570117B2

Test: Solubility in gastric juice or intestinal juice model fluid (precipitation method using DMSO)
Format: physicochemical
Settings: pH 1.2, simulated gastric fluid, kinetic from dmso stock, 1st fluid for Disintegration Test of Japanese Pharmacopoeia (pH: 1.2), room temperature, read-out: Solubility (μg/mL) 1st fluid
Procedure: Solubility in Gastric Juice or Intestinal Juice Model Fluid Measurement was performed by a precipitation method using DMSO. […] Subsequently, insoluble substances in each mixture were removed by filtration, and the UV absorption of each filtrate was measured. […]
assay-metric: log10 of solubility at 24 h (log10 of the value in µg/mL)
Hi team, quick reminder: these entries are log10 of solubility at 24 h (µg/mL).

Endpoint output: log10 of solubility at 24 h of COc1cc(-c2c[nH]c(C34CC5CC(CC(C5)C3)C4)n2)cc(OC)c1OCc1ccc(C(F)(F)F)cn1 [Example 66] . Value?
1.76

Endpoint output: log10 of solubility at 24 h of COc1cc(OCc2ccc(C(F)(F)F)cn2)ccc1-c1[nH]c(C2CC(F)(F)C2)nc1Cl [Example 188] . Value?
1.94

Endpoint output: log10 of solubility at 24 h of COc1cc(OCc2ccc(C(F)(F)F)nc2)c(C)cc1-c1cnc(-c2ccc(F)nc2)[nH]1 [Example 15] . Value?
0.89

Endpoint output: log10 of solubility at 24 h of COc1cc(-c2cnc(C3CC(F)(F)C3)[nH]2)ccc1OCc1ccc(C(F)(F)F)cn1 [Example 11] . Value?
1.90

Endpoint output: log10 of solubility at 24 h of COc1cc(OCc2ccc(C(F)(F)F)nc2)c(C)cc1-c1[nH]c(C2CCC(F)(F)CC2)nc1Br [Example 187] . Value?
1.88

Endpoint output: log10 of solubility at 24 h of COc1cc(-c2[nH]c(C3CC(F)(F)C3)nc2Cl)ccc1OCc1ccc(C(F)(F)F)nc1 [Example 179] . Value?
1.41

Endpoint output: log10 of solubility at 24 h of COc1cc(OCc2cc(C(F)(F)F)ccn2)ccc1-c1cnc(-c2ccc(F)nc2)[nH]1 [Example 114] . Value?
1.05

Endpoint output: log10 of solubility at 24 h of COc1cc(OCc2cnccc2C(F)(F)F)ccc1-c1cnc(-c2ccc(F)nc2)[nH]1 [Example 131] . Value?
1.94

Endpoint output: log10 of solubility at 24 h of CCOC(C)n1cc(-c2ccc(OCc3ccc(C(F)(F)F)nc3)cc2OC)nc1-c1ccc(F)nc1 (stereo not shown) [Example 328] . Value?
1.65

Endpoint output: log10 of solubility at 24 h of Fc1ccc(-c2ncc(-c3ccc(OCc4ncc(C(F)(F)F)cc4F)cc3)[nH]2)cn1 [Example 344] . Value?
1.93

Endpoint output: log10 of solubility at 24 h of COc1cc(O)ccc1-c1[nH]c(-c2ccc(F)nc2)nc1C [Example 333] . Value?
1.77

Endpoint output: log10 of solubility at 24 h of COc1cc(OCc2ncccc2C(F)(F)F)ccc1-c1nc(-c2ccc(Cl)nc2)[nH]c1Cl [Example 221] . Value?
1.82

* * *

experiment: Solubility in gastric juice or intestinal juice model fluid (precipitation method using DMSO); type: physicochemical; details: pH 1.2, simulated gastric fluid, kinetic from dmso stock, 1st fluid for Disintegration Test of Japanese Pharmacopoeia (pH: 1.2), room temperature, read-out: Solubility (μg/mL) 1st fluid
Rule: solubility at 24 h under 20 µg/mL gives not met, otherwise met.

Is the recorded value of solubility at 24 h equal to or greater than 20 µg/mL for this compound? COc1cc(OCc2ccc(C(F)(F)F)cn2)ccc1-c1c(Cl)nc(-c2ccc(F)nc2)n1C [Example 312]
met

Is the recorded value of solubility at 24 h equal to or greater than 20 µg/mL for this compound? COc1cc(OCc2c(F)cc(C(F)(F)F)c[n+]2[O-])ccc1-c1[nH]c(-c2ccc(F)nc2)nc1Cl [Example 317]
met

Is the recorded value of solubility at 24 h equal to or greater than 20 µg/mL for this compound? Fc1cc(C(F)(F)F)cnc1COc1ccc(-c2cnc(C3CC(F)(F)C3)[nH]2)cc1 [Example 393]
met

Is the recorded value of solubility at 24 h equal to or greater than 20 µg/mL for this compound? COc1cc(-c2[nH]c(C3CC(F)(F)C3)nc2Cl)ccc1OCc1ncc(C(F)(F)F)cc1F [Example 354]
met

Is the recorded value of solubility at 24 h equal to or greater than 20 µg/mL for this compound? COc1cc(OC(C)c2ccc(C(F)(F)F)cn2)ccc1-c1c[nH]c(-c2ccc(F)nc2)n1 (stereo not shown) [Example 117]
met

Is the recorded value of solubility at 24 h equal to or greater than 20 µg/mL for this compound? COc1cc(OCc2ccc(C(F)(F)F)cn2)ccc1-c1cnc(-c2ccc(C#N)nc2)[nH]1 [Example 150]
not met

Is the recorded value of solubility at 24 h equal to or greater than 20 µg/mL for this compound? COc1c(OCc2ccc(C(F)(F)F)nc2)ccc(-c2[nH]c(C3CCC(F)(F)CC3)nc2Br)c1OC [Example 199]
met

Is the recorded value of solubility at 24 h equal to or greater than 20 µg/mL for this compound? COc1cc(OCc2ccc(C(F)(F)F)nc2)c(C)cc1-c1cnc(C2CCC(F)(F)CC2)[nH]1 [Example 12]
not met

Is the recorded value of solubility at 24 h equal to or greater than 20 µg/mL for this compound? COc1cc(OCc2ncc(C(F)(F)F)cc2F)ccc1-c1[nH]c(C2CC2)nc1Cl [Example 377]
met

Is the recorded value of solubility at 24 h equal to or greater than 20 µg/mL for this compound? COc1cc(-c2c[nH]c(-c3ccc(Cl)nc3)n2)ccc1OCc1cccc(F)n1 [Example 47]
not met

Is the recorded value of solubility at 24 h equal to or greater than 20 µg/mL for this compound? COc1cc(OCc2ccncc2C(F)(F)F)ccc1-c1cnc(-c2ccc(Cl)nc2)[nH]1 [Example 100]
not met

Is the recorded value of solubility at 24 h equal to or greater than 20 µg/mL for this compound? COc1cc(-c2c[nH]c(C3CCCCC3)n2)ccc1OCc1ccc(C(F)(F)F)nc1 [Example 51]
met

Is the recorded value of solubility at 24 h equal to or greater than 20 µg/mL for this compound? COc1cc(OC(C)c2cccc(C(F)(F)F)n2)ccc1-c1[nH]c(-c2ccc(F)nc2)nc1Cl (stereo not shown) [Example 237]
not met

Is the recorded value of solubility at 24 h equal to or greater than 20 µg/mL for this compound? Fc1ccc(-c2ncc(-c3ccc(OCc4ncc(C(F)(F)F)cc4F)cc3Cl)[nH]2)cn1 [Example 360]
met

Is the recorded value of solubility at 24 h equal to or greater than 20 µg/mL for this compound? COc1cc(OCc2ncc(C(F)(F)F)cc2F)ccc1-c1cnc(C2CCC2)[nH]1 [Example 371]
met

Is the recorded value of solubility at 24 h equal to or greater than 20 µg/mL for this compound? COc1cc(OCc2ccc(C(F)(F)F)nc2)ccc1-c1c(Cl)nc(-c2ccc(F)nc2)n1C [Example 311]
not met
